biological target: human MAGL (Homo sapiens); construct: recombinant MAGL enzyme (aa 2-303 RBC, internal preparation); assay: MAGL inhibition potency assay with 4-nitrophenyl acetate (4NPA) substrate, absorbance 405 nm; assay type: biochemical; details: Method 2: Cayman Chemical MAGL enzyme prep, 10 nM enzyme; read-out: MAGL Potency (Detection Method)
Sequence (Q99685 2-303): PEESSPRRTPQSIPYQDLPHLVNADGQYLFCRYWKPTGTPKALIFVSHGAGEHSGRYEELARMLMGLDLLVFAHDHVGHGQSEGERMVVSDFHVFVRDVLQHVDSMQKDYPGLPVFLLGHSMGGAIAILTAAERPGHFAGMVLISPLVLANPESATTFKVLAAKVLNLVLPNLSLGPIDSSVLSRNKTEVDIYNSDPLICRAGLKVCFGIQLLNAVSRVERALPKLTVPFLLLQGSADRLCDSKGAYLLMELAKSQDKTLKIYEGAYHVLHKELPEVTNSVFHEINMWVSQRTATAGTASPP
measurement.type: IC50

Item: Cc1cc(C2CC3(C2)CN(C(=O)c2ccc(F)cc2OCC(F)(F)F)C3)n(-c2ccccc2C)n1 [Compound 178] | IC50: < 50 nM
